Each entry below carries its recorded CD28 scFv signal in presence of CD28.
# experimental_target: anti-CD28 scFv (VH - linker 1 - VL) (biotinylated (site not stated))
# Sequence (scFv, as listed by the source): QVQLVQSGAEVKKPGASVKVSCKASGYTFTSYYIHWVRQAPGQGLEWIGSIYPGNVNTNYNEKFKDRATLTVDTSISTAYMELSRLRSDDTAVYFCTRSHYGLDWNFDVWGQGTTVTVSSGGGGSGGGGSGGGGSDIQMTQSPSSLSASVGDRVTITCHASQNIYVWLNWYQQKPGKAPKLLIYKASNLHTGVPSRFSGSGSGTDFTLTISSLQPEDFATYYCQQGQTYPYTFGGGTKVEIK
# measurement_protocol: phage ELISA as above, wells pre-incubated with soluble CD28 as competitor
Could you keep your reply to the number by itself?

Please report the recorded CD28 scFv signal in presence of CD28 for MHWCPINLWNECFS [Phage-184] .
0.098

Please report the recorded CD28 scFv signal in presence of CD28 for MDWCPMNLWSECFN [Phage-173] .
0.124

Please report the recorded CD28 scFv signal in presence of CD28 for MDWCPKHLWNECFN [Phage-174] .
0.105

Please report the recorded CD28 scFv signal in presence of CD28 for MHWCPRSLWNECYF [Phage-182] .
0.115

Please report the recorded CD28 scFv signal in presence of CD28 for MDWCPVSLWDHCFN [Phage-177] .
0.1

Please report the recorded CD28 scFv signal in presence of CD28 for MDWCPRDMWYECFN [Phage-191] .
0.235

Please report the recorded CD28 scFv signal in presence of CD28 for QDWCPTYLWHHCFN [Phage-186] .
0.122

Please report the recorded CD28 scFv signal in presence of CD28 for VDWCPRYLWHVCYN [Phage-189] .
0.061

Please report the recorded CD28 scFv signal in presence of CD28 for DVWCPKYMWSLCFN [Phage-192] .
0.418

Please report the recorded CD28 scFv signal in presence of CD28 for MDWCPRDMWAECFF [Phage-190] .
2.26

Please report the recorded CD28 scFv signal in presence of CD28 for MDWCPSDLWHECFH [Phage-176] .
0.164

Please report the recorded CD28 scFv signal in presence of CD28 for MDWCPKHMWFMCFN [Phage-195] .
0.372

Please report the recorded CD28 scFv signal in presence of CD28 for MDWCPRYMWYQCFS [Phage-196] .
0.357

Please report the recorded CD28 scFv signal in presence of CD28 for LDWCPRDLWHVCFF [Phage-178] .
0.105

Please report the recorded CD28 scFv signal in presence of CD28 for IGKLTLCLNADLVI [Phage-187] .
0.1

Please report the recorded CD28 scFv signal in presence of CD28 for MYWCPRDLWDVCFN [Phage-181] .
0.102
